Cited source for all entries: patent US11724980B2

- EXPERIMENT_DESCRIPTION: physchem
- Type: physicochemical
- COND: pH 12, aqueous buffer, thermodynamic from solid, pH 12 (value in brackets); read-out: Solubility (M) at pH 14 (pH 12)
PROPERTY_LABEL: solubility (M)
Please respond with the number in M and leave the unit unwritten.

Given item O=C([O-])CCCOc1ccc2c(c1)C(=O)c1ccc(OCCCC(=O)[O-])cc1C2=O.[K+].[K+] , the value recorded as its solubility is 0.6
